# PROTOCOL SUMMARY: NCI Yeast Anticancer Drug Screen. Data for the cln2 rad14 strain (AID 165)
# CONDITIONS USED: S. cerevisiae cln2 rad14 strain, at 5.0 µM (retest, dose inferred, filed as 0.5)
Compounds without any hit were thinned out: in the full panel of roughly 79,000, 15% have a hit. Calls of active or inactive are those of the source. Cut-off read from the data, not from the text of the source: active = growth inhibition above about 70%; inactive = the rest.
Just give me one of these, please: true for active, false for inactive

Below, 4 molecules whose answers are already recorded.
CCCCCN=C(C)C(C)=NCCCCC | false
CCCCCN(CCCCC)CC(C)(C)C(O)c1ccc(OC)c2ccccc12 (stereo unspecified) | false
COc1ccc(NC(=O)CSC(N)=O)cc1 | false
CCCCCCCCC1OC1CCCCCCCC(=O)OCC1CO1 (stereo unspecified) | false

Kindly review the next molecule as well.
I would be grateful if you could indicate the recorded call for C(=NCCc1ccccc1)c1ccccc1B1OB(c2ccccc2C=NCCc2ccccc2)OB(c2ccccc2C=NCCc2ccccc2)O1 .
true

meta.source: PubChem BioAssay (NCI)
